Sourced from PubChem BioAssay (NCI)

Some molecules, each annotated with its measured TGI.
- Test system: U251 CNS
- Experiment: NCI tumour cell line growth inhibition, 48 h
Provide only the numeric value, understood in µM.

Quick one: TGI for COc1ccc(C2=NC(c3ccc(Cl)cc3)C(c3ccc(Cl)cc3)N2C(=O)N2CCNC(=O)C2)c(OC(C)C)c1 (stereo not given) ? 3.57

Quick one: TGI for CCCCCCCCCCCCCCCCOCC(O)CO (stereo not given) ? 36.2

Quick one: TGI for CCOC(=O)CCC(NC(=O)c1ccc(Nc2nc3ccccc3nc2C(=O)OCC)cc1)C(=O)OCC (stereo not given) ? 9.66

Quick one: TGI for O=C(/C=C/c1ccco1)c1ccc(Nc2nc(Nc3ccc(F)cc3)nc(Nc3ccc(F)cc3)n2)cc1 ? 42.2

Quick one: TGI for O=C1C(c2c(O)[nH]c3ccc(S(=O)(=O)NCCO)cc23)=Nc2ccccc21 ? 12.9

###

Some compounds, each annotated with its measured TGI.
- System: NCI-H460 lung
- Experiment: NCI tumour cell line growth inhibition, 48 h

Compound	Tested System	Recorded Metric	Result
CCn1c2ccccc2c2cc(Nc3cc(C)[nH]c(=O)n3)ccc21	NCI-H460 lung	TGI	> 100 µM
FC(F)(F)c1ccc2nc(Sc3ccc4ccccc4c3)cnc2c1	NCI-H460 lung	TGI	> 100 µM
CC(=O)NC1C(OCc2ccccc2)OC(CO)C(O)C1OCC(=O)N[C@@H](C)C(=O)N[C@H](CCC(=O)NCCCNc1ccc([N+](=O)[O-])c2[nH]c3ccccc3c(=O)c12)C(N)=O (some centres undefined)	NCI-H460 lung	TGI	> 100 µM
Cc1noc(/N=C2\C=C(Nc3onc(C)c3C)C(=O)c3ccccc32)c1C	NCI-H460 lung	TGI	> 100 µM
CC1(C)CC(=O)C2=C(C1)OC1(CC2c2ccc(Cl)cc2)CC(c2ccc(Cl)cc2)C2=C(CC(C)(C)CC2=O)O1 (centres undefined)	NCI-H460 lung	TGI	> 65.1 µM
CCOC(=O)C(C)N1C(=O)c2ccccc2S1(=O)=O (centres undefined)	NCI-H460 lung	TGI	> 100 µM
NS(=O)(=O)c1ccc(NC(=O)c2cccc(NC3=C(Cl)C(=O)N(Cc4ccccc4)C3=O)c2)cc1	NCI-H460 lung	TGI	25.6 µM
O=C(c1ccc2ccccc2c1)c1c(C(F)(F)F)n([O-])c2ccc(F)cc2[n+]1=O	NCI-H460 lung	TGI	3.68 µM

Quick one: TGI for Cc1ccc(/C=C2/N=C(N/N=C\c3ccccc3)NC2=O)cc1 ? > 100 µM

###

- System: UACC-62 melanoma
- Experiment: NCI tumour cell line growth inhibition, 48 h
Recorded Metric: TGI

                                   compound    result
0  N#C/C(=C\c1ccc2[nH]ccc2c1)C(=O)c1ccc(O)c(O)c1  > 100 µM
1  COc1ccc(NC(=O)C2C(=O)N(c3ccc(OC)cc3)C(=O)/C2=N\NC(N)=O)cc1 (stereo not given)   46.7 µM

Quick one: TGI for O=C(N/N=C\c1ccc([N+](=O)[O-])s1)c1ccncc1 ? 15.7 µM

Quick one: TGI for CCOc1cc2c(cc1O)C(N)C[C@@H]1[C@@H]2CC[C@]2(C)[C@@H](O)CC[C@@H]12 (stereo not given in full) ? > 100 µM

Quick one: TGI for Nc1nc(N)c2c(n1)NC(c1sc(Cl)nc1Cl)CC(c1ccc3c(c1)OCO3)=N2 (stereo not given) ? 18.9 µM

###

Some compounds, each annotated with its measured GI50.
- System: NCI/ADR-RES ovarian
- Experiment: NCI tumour cell line growth inhibition, 48 h

Below: 2 compounds and their reported GI50.
>>> df
                                smiles_repr    result
0  O=C(/C=C/c1cccc2ccccc12)Nc1ncc(Cc2ccccc2)s1    713 nM
1  C/C(=N/O)c1ccc(Nc2cc(-n3ccnc3)c3ccccc3n2)cc1  42900 nM

Quick one: GI50 for CN=C(N)N/N=C(\C)c1ccc2c(c1)Cc1ccccc1-2 ? 2020 nM

###

- System: OVCAR-8 ovarian
- Experiment: NCI tumour cell line growth inhibition, 48 h
Recorded Metric: GI50

Below: 2 molecules and their reported GI50.
In [3]: df
Out[3]:
                                smiles_repr  recorded_metric       result
0  CN(C(=O)CNC(=O)/C=C/c1cccc(Cl)c1)C1CCS(=O)(=O)CC1             GI50  > 100000 nM
1  Cc1ccc(-c2n[nH]c(=O)c3noc(-c4ccc(C)cc4)c23)cc1             GI50      1820 nM

Please look at the following molecule next.
Quick one: GI50 for O=C(/C=C/c1cccc2ccccc12)Nc1ncc(Cc2ccccc2)s1 ? 1550 nM

###

- Tested on: SF-268 CNS
- Experiment: NCI tumour cell line growth inhibition, 48 h
Some molecules, each annotated with its measured TGI.

Molecule	TGI
O=C(O)CCc1nc(-c2ccccc2-n2cccc2)no1	> 100 µM
CC1=CC(=O)NP(=O)(C23CC4CC(CC(C4)C2)C3)N1 (centres undefined)	> 100 µM
CC(C)NC(=O)OCc1c(COC(=O)NC(C)C)c(-c2cc[n+](COC(=O)C3CCCCC3)cc2)n2c1CCC2	> 100 µM

Quick one: TGI for C=C1CC2[C@H](C)C(=O)CCC2(C)C2=C1C1CCC(C(C)CCC(=C)C(C)C(=O)O)C1(C)CC2=O (some centres undefined) ? > 100 µM

Quick one: TGI for Cn1cc(NC(=O)Nc2cc(C(=O)Nc3cc(C(=O)Nc4cc(S(=O)(=O)O)c5cc(S(=O)(=O)O)cc(S(=O)(=O)O)c5c4)n(C)c3)n(C)c2)cc1C(=O)Nc1cc(C(=O)Nc2cc(S(=O)(=O)O)c3cc(S(=O)(=O)O)cc(S(=O)(=O)O)c3c2)n(C)c1 ? > 100 µM

Quick one: TGI for COC(=O)C(=O)C(C(=O)C(=O)Nc1cc(Cl)c(Cl)cc1Cl)c1nc2ccc([N+](=O)[O-])cc2[nH]c1=O (centres undefined) ? > 100 µM

###

- Test system: DU-145 prostate
- Experiment: NCI tumour cell line growth inhibition, 48 h
Recorded Metric: TGI

Below: 3 compounds and their reported TGI.
In [3]: df
Out[3]:
                                   compound    result
0  C=C1CC2[C@H](C)C(=O)CCC2(C)C2=C1C1CCC(C(C)CCC(=C)C(C)C(=O)O)C1(C)CC2=O (some centres undefined)  > 100 µM
1  CC(C)(C)C1=C(Br)C(OC(=O)C(F)(F)F)(C(C)(C)C)OP1(=O)c1ccccc1 (centres undefined)  > 100 µM
2  CC(C)NC(=O)OCc1c(COC(=O)NC(C)C)c(-c2cc[n+](COC(=O)C3CCCCC3)cc2)n2c1CCC2  > 100 µM

Please look at the following compound next.
Quick one: TGI for CCOC(=O)C1=C(C)N(Cc2ccccc2)C2(O)C=CC(=O)C3=C(O)c4ccccc4C(=O)C312 (centres undefined) ? 38.3 µM

###

Some compounds, each annotated with its measured TGI.
- System: KM12 colon
- Experiment: NCI tumour cell line growth inhibition, 48 h
Provide only the numeric value, understood in µM.

Below: 3 compounds and their reported TGI.
Compound	Unit Info	TGI
CC(/C=N/N=C(N)N)=N\N=C(N)N	µM	34.4
CCCCC[C@H]1CCCCCCCCCC(=O)OC2C(O[C@@H]3OC(C)[C@H](OC(=O)[C@@H](C)CC)C(O[C@@H]4OC(C)[C@H](O)C(O)[C@@H]4O)[C@@H]3OC(=O)[C@H](C)CC)[C@H](OC3C(O)[C@@H](O)C(C)O[C@H]3O1)OC(CO)[C@H]2O (stereo not given in full)	µM	35.8
O=C(C=C=Nc1ccccc1)C(=O)N=C=Cc1ccccc1	µM	19.1

Please look at the following compound next.
Quick one: TGI for CCCCCCCCCCCCCCCCOCC(O)CO (stereo not given) ? 32.1

###

- Tested on: NCI-H226 lung
- Experiment: NCI tumour cell line growth inhibition, 48 h
Recorded Metric: TGI

Below: 3 compounds and their reported TGI.
Compound	Recorded Metric	Result
Cc1ccc(S(=O)(=O)NC(CO)C(=O)O)cc1 (centres undefined)	TGI	> 100 µM
CC(C)(C)C1=C(Br)C(OC(=O)C(F)(F)F)(C(C)(C)C)OP1(=O)c1ccccc1 (centres undefined)	TGI	> 100 µM
NN/C(=N\S(=O)(=O)c1ccc(S(=O)(=O)c2ccccc2)s1)Nc1ccc(Cl)cc1	TGI	> 100 µM

Quick one: TGI for FC(F)(F)c1ccc2nc(Sc3ccc4ccccc4c3)cnc2c1 ? > 100 µM

Quick one: TGI for O=C(NOCCO)c1cc(CN2OCCCC2=O)c(F)c(F)c1Nc1ccc(I)cc1F ? > 100 µM

Quick one: TGI for CSCCCNC(=O)[C@H](CSC)NC(=O)c1csc(CCNC(=O)[C@@H](NSc2ccccc2[N+](=O)[O-])C(C)O)n1 (some centres undefined) ? > 100 µM

Quick one: TGI for O=Cc1ccc(N2CCN(c3ccc(C=O)cc3)CC2)cc1 ? 4.12 µM

Quick one: TGI for C/C(=N\NS(=O)(=O)c1ccc([N+](=O)[O-])cc1)c1ccc[n+]([O-])n1 ? 3.91 µM

Quick one: TGI for Cc1c(Cl)cccc1NC(=O)c1sc2nc3c(cc2c1N)CCCC3 ? > 100 µM

Quick one: TGI for O=C(c1ccc2ccccc2c1)c1c(C(F)(F)F)n([O-])c2ccc(F)cc2[n+]1=O ? 3.97 µM

Quick one: TGI for O=C(Nc1ccc2ccccc2c1)c1cc2cc(CCl)ccc2oc1=O ? > 100 µM

Quick one: TGI for COCCN1C(=O)C2c3[nH]c4ccccc4c3C3CCC(C(C)(C)C)CC3C2C1=O (centres undefined) ? 39 µM

Quick one: TGI for CN1CN(C(=O)N2CN(C)C(=O)N(C)C2)CN(C)C1=O ? > 100 µM

Quick one: TGI for c1ccc(-c2ccnc3c2ccc2c(-c4ccccc4)ccnc23)cc1 ? 4.76 µM

Quick one: TGI for Cc1ccc(-c2n[nH]c(=O)c3noc(-c4ccc(C)cc4)c23)cc1 ? > 100 µM

Quick one: TGI for N#Cc1nc(/C=C/c2cccnc2)oc1N ? > 100 µM
